Molecular target: Hexose transporter 1 (Plasmodium falciparum)
Assay: ST_JUDE_LEISH: Cytotoxicity at 2uM final concentration against transgenic Leishmania Mexicana promastigotes LmPfHT that are glucose transport deficient and complemented with the Plasmodium falciparum hexose transporter. Activity is measured by DNA content using SYBR green in vitro
Type: functional
Label rule, in plain words: inhibition of 2% and up is Satisfied, under 2% is Not satisfied.

Could you please find out whether Cc1ccccc1CNCC(O)c1cccc(C(F)(F)F)c1 (stereo not given) has inhibition that meets 2% or exceeds it? Satisfied

Is it the case that CCCCCC(C)C(C)c1cc(O)c2c(c1)OC(C)(C)c1cnccc1-2 (stereo not given) has inhibition reaching or exceeding 2%? Not satisfied

Could you please find out whether COCC(=O)N(Cc1ccccc1-c1cccc(CNCCc2ccccc2)c1)C1CCN(Cc2ccccc2)CC1 has inhibition that meets 2% or exceeds it? Not satisfied

Would you say Oc1ccccc1CNCC(O)c1cc(C(F)(F)F)cc(C(F)(F)F)c1 (stereo not given) shows inhibition at minimum 2%? Satisfied

Identify whether the reported inhibition of the following compound is 2% or greater: C=Cc1cc(OC)c2c(c1)c(=O)oc1c2cc(OC)c2c(O)ccc([C@H]3O[C@H]([C@H](C)O)[C@H](O)[C@H]3O)c21 Satisfied
